This collection of values is drawn from patent US6521635B1.

- Tested on: S1-M1-80 cells expressing MXR
- Assay comment: In vitro cytotoxicity assay (sulforhodamine B staining)
- Format: cell-based, human
- Assay setup: Homo sapiens, S1-M1-80, read-out: IC50 for GF120918 alone, S1-M1-80 cells
pIC50: −log10 of the molar value.
Measured attribute: pIC50

> print(dat)
                         structure.notation  readout.number
1  COc1cc2c(cc1OC)CN(CCc1ccc(NC(=O)c3cccc4c(=O)c5cccc(OC)c5[nH]c34)cc1)CC2            5.60

###

- Tested on: S1 parental cells
- Assay comment: In vitro cytotoxicity assay (sulforhodamine B staining)
- Assay type: cell-based, human
- Assay setup: Homo sapiens, 96 h, read-out: IC50 +1.0 μM GF120918
pIC50: −log10 of the molar value.
Measured attribute: pIC50

> print(dat)
                         structure.notation  readout.number
1  CC[C@@]1(O)C(=O)OCc2c1cc1n(c2=O)Cc2cc3c(CN(C)C)c(O)ccc3nc2-1            7.60
2  O=C1c2c(O)ccc(O)c2C(=O)c2c(NCCNCCO)ccc(NCCNCCO)c21            8.28

###

Below is a list of entries, each paired with its recorded pIC50 value.
- Test system: S1-B1-20 Pgp-overexpressing cells
- Assay comment: In vitro cytotoxicity assay (sulforhodamine B staining)
- Assay type: cell-based, human
- Assay setup: Homo sapiens, S1B1-20, 96 h, read-out: IC50 +1.0 μM GF120918
pIC50: −log10 of the molar value.
Measured attribute: pIC50

> print(dat)
                                   molecule  readout.number
1  CC[C@@]1(O)C(=O)OCc2c1cc1n(c2=O)Cc2cc3c(CN(C)C)c(O)ccc3nc2-1 [topotecan]            7.57
2  O=C1c2c(O)ccc(O)c2C(=O)c2c(NCCNCCO)ccc(NCCNCCO)c21 [Mitoxantrone]            7.89

###

- Assay comment: In vitro cytotoxicity assay (sulforhodamine B staining)
- Type: cell-based, human
- Assay setup: human
Measured attribute: IC50 at 96 h (µM)

> print(dat)
                                   compound  uom  readout.number
1  COc1cc2c(cc1OC)CN(CCc1ccc(NC(=O)c3cccc4c(=O)c5cccc(OC)c5[nH]c34)cc1)CC2 [GF120918]   µM             3.6
